molecular target: T1, His-tagged IDO1 human recombinant protein (71182, BPS Biosciences) (human, UniProt P14902 2-403); test: binding affinity, assay not named
T1 construct: Bought His-tagged protein; also called human IDO1; recombinant human IDO1
T1 sequence (P14902 2-403 limits assumed): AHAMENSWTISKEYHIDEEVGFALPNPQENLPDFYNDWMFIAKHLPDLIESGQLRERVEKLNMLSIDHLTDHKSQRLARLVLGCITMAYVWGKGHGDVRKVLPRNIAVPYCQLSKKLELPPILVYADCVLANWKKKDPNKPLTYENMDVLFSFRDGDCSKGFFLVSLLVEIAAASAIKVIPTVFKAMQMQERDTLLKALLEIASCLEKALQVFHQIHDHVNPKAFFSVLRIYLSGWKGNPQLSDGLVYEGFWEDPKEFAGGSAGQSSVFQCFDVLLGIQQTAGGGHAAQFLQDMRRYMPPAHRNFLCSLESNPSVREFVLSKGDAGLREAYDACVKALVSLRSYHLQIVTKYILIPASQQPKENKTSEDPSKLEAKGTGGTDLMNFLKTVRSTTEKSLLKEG
Square brackets hold non-standard residues; d marks the D form. Ends that are not written are not given here. Me‑Phe = methyl phenylalanine; Ph‑Tyr = phenyl tyrosine; Me‑Val = methyl valine

| BINDER | EC50 |
| --- | --- |
| [dW][Ph‑Tyr][Me‑Val]G[Me‑Phe] (not fully specified; printed as w(Ph-Tyr)(Me-Val)G(Me-Phe), Modified version of wyvay) [w(Ph-Tyr)(Me-Val)G(Me-Phe)] | 18 nM |
